test system: MALME-3M melanoma; experiment: NCI-60 one-dose screen, 48 h (100 = growth as untreated, 0 = no growth, -100 = all killed); settings: 10 µM unless noted
About 83,000 compounds went through this panel and 20% of them were active in at least one assay; those are over-represented in the sample as a whole.
Assign class by growth: not lower than 40% means label 1; lower than 40% means label 0.

[[record]]
compound = "COc1ccc(/C=C/c2nc3ccccc3c(=O)n2CC(=O)Nc2ccccc2)cc1"
qualitative_label = "label 1"

[[record]]
compound = "O=C(c1ccc(O)cc1)C1[C@H](c2ccc(Cl)cc2)[C@@H](c2ccccc2)NC12C(=O)Nc1ccc(Br)cc12 (some centres undefined)"
qualitative_label = "label 0"

[[record]]
compound = "CN(C)CCCNC(=S)Nc1ccc(/C=C/c2ccc(Cl)cc2)cc1"
qualitative_label = "label 0"

[[record]]
compound = "O=C1CCC(N2C(=O)c3cccc(NCCCCCC(=O)N4CCN(c5ccc6nc7c(nc6c5C(F)(F)F)C(=O)c5ncccc5C7=O)CC4)c3C2=O)C(=O)N1 (centres undefined)"
qualitative_label = "label 0"

[[record]]
compound = "COc1ccc(C(=O)/C=C/c2ccc3c(c2)OCCO3)cc1S(N)(=O)=O"
qualitative_label = "label 1"


Ask | Item CCCn1c(NC(=O)c2cccc(C(N)=O)c2)nc2ccc(CN3CCCCC3)cc21 with growth of 40% or above?
Reply | label 1

Ask | Item N#C/C(=C/c1ccc(Cl)cc1)c1nnc(NC(=O)c2ccc(-n3c(=O)[nH]c4ccccc4c3=O)cc2)s1 with growth of 40% or above?
Reply | label 1

Ask | Item O=C(N=Nc1c(O)[nH]c2ccc(Cl)cc12)c1ccc2nc(-c3ccc(Cl)cc3)[nH]c2c1 with growth of 40% or above?
Reply | label 0

Ask | Item COc1ccc2[nH]c(O)c(N=Nc3nc(-c4ccc(C#N)cc4)cs3)c2c1 with growth of 40% or above?
Reply | label 0

Ask | Item CC1=C(C(=O)OCc2ccccc2)C(c2ccc(N(C)C)cc2)n2c(nc3ccccc32)N1 (centres undefined) with growth of 40% or above?
Reply | label 1

Ask | Item COc1ccc2[nH]c(=O)c(CSc3ccccc3Nc3nccc(-c4ccc5c(c4)OCO5)n3)cc2c1 with growth of 40% or above?
Reply | label 1

###

tested on: UACC-257 melanoma; test: NCI-60 one-dose screen, 48 h (100 = growth as untreated, 0 = no growth, -100 = all killed); details: 10 µM unless noted
Compounds without any hit were thinned out: in the full panel of roughly 83,000, 20% have a hit.
assay-endpoint: growth (%)
Response body: numeric value in %, unit text excluded.

Study these solved cases before continuing.
[[record]]
molecule = "Cc1ccc(C2CC(c3ccc(S(=O)(=O)NCCNc4nc(N(C)C)nc(N5CCOCC5)n4)cc3)=Nc3c(N)nc(N)nc3N2)cc1 (centres undefined)"
measured_on = "UACC-257 melanoma"
assay_endpoint = "growth"
display_unit = "%"
quantitative_result = 72.6

[[record]]
molecule = "N/C(=N\\c1nc2ccc([N+](=O)[O-])cc2s1)NC(=O)Nc1ccccc1Cl"
measured_on = "UACC-257 melanoma"
assay_endpoint = "growth"
display_unit = "%"
quantitative_result = 89.6

[[record]]
molecule = "Cc1ccc(S(=O)(=O)Nc2ccc(-c3ccc4c(c3)NC(=O)/C4=C\\c3ccc[nH]3)cc2)cc1"
measured_on = "UACC-257 melanoma"
assay_endpoint = "growth"
display_unit = "%"
quantitative_result = 110


Now consider the entry below.
Ask | Please give the measured growth for this molecule: CN(C)c1nc(NCCNS(=O)(=O)c2ccc(C(=O)/C=C/c3ccccc3)cc2)nc(N2CCOCC2)n1
Reply | 78.8

###

test system: SNB-19 CNS; experiment: NCI-60 one-dose screen, 48 h; conditions: 10 µM unless noted
The panel holds about 83,000 compounds, 20% with a hit somewhere; the sample as a whole holds those more often. The source made the active and inactive calls. How the source made its calls: active means growth percent below 10; inactive means the rest.
Select the correct class. Options are true (active), false (inactive) and nothing else.

[[record]]
compound = "CC[C@]12C=CCN3CC[C@@]4(c5ccc(OC)cc5N(C)[C@H]4[C@@](O)(C(=O)OC)[C@@H]1OC(=O)CCC[P+](c1ccc(OC)cc1)(c1ccc(OC)cc1)c1ccc(OC)cc1)[C@@H]32"
qualitative_label = "true"

[[record]]
compound = "COc1cc(CNC(=O)C[C@H](C)CCC=C(C)C)ccc1OCc1cn(-c2ccc(Br)cc2)nn1"
qualitative_label = "false"

[[record]]
compound = "COc1cc(CNC(=O)C[C@H](C)CCC=C(C)C)ccc1OCc1cn(-c2ccccc2F)nn1"
qualitative_label = "false"

[[record]]
compound = "O=C(c1ccc(O)cc1)C1[C@H](c2ccccc2Br)[C@@H](c2ccccc2)NC12C(=O)Nc1ccccc12 (some centres not stated)"
qualitative_label = "false"

[[record]]
compound = "CS(=O)(=O)Nc1cc(-c2ccc3ncnc(N4CCc5cc(F)c(Cl)cc54)c3c2)cnc1Cl"
qualitative_label = "false"

[[record]]
compound = "COc1ccc(N=Nc2c(N)nn3c(N)c(C#N)c(-c4ccc(F)cc4)nc23)cc1"
qualitative_label = "false"


Ask | Hey, what did the test say about COC(=O)c1c(C(=O)OC)c2c3ccccc3c3ccccc3n2c1C(=O)C(F)(F)F ?
Reply | false

Ask | Hey, what did the test say about COc1ccc(-c2cc(C(=O)N=Nc3c(O)[nH]c4ccc(Cl)cc34)c3ccccc3n2)cc1OC ?
Reply | false

Ask | Hey, what did the test say about Cc1ccc2c(c1)nc(-c1ccccc1)n2CC(=O)N=Nc1c(O)[nH]c2ccc(Cl)cc12 ?
Reply | true

Ask | Hey, what did the test say about Nc1nc(-c2ccccc2)c(N=Nc2ccc(Cl)cc2Cl)s1 ?
Reply | true

Ask | Hey, what did the test say about O=C(Nc1nc2ccc([N+](=O)[O-])cc2s1)Nc1ccc(Cl)cc1Cl ?
Reply | false

###

tested on: HT29 colon; test: NCI-60 one-dose screen, 48 h (100 = growth as untreated, 0 = no growth, -100 = all killed); settings: 10 µM unless noted
This is part of a sample that, as a whole, favours compounds with a hit. Of some 83,000 tested, about 20% had one in any assay.
assay-endpoint: growth (%)
Response body: numeric value in %, unit text excluded.

[[record]]
compound = "NS(=O)(=O)c1ccc(Nc2nc(SCC(=O)c3ccc(F)cc3)nc3ccccc23)cc1"
measured_on = "HT29 colon"
quantitative_result = 63.3

[[record]]
compound = "CN1CCN(CCS(=O)(=O)Nc2cc(-c3ccc4ncnc(Nc5ccc(F)c(Cl)c5)c4c3)cnc2Cl)CC1"
measured_on = "HT29 colon"
quantitative_result = 12

[[record]]
compound = "O=C1/C(=C/c2cnc(-c3ccccc3)s2)SC(=S)N1Cc1ccc2c(c1)OCO2"
measured_on = "HT29 colon"
quantitative_result = 111

[[record]]
compound = "O=CNc1cccc(-n2cnc3cc(-c4ccc(O)cc4)ccc32)c1"
measured_on = "HT29 colon"
quantitative_result = 22.7


Ask | Please give the measured growth for this compound: Clc1ccc(CNc2nc(SCCN3CCOCC3)nc3c2cnn3CC(Cl)c2ccc(Br)cc2)cc1 (stereo not given)
Reply | -51.5

###

tested on: CCRF-CEM leukemia; assay: NCI-60 one-dose screen, 48 h (100 = growth as untreated, 0 = no growth, -100 = all killed); settings: 10 µM unless noted
About 83,000 compounds went through this panel and 20% of them were active in at least one assay; those are over-represented in the sample as a whole.
Below, each entry is listed with its recorded growth.
Response body: numeric value in %, unit text excluded.

[[record]]
molecule = "CC[C@]12C=CCN3CC[C@]4(C(=C(C(=O)OC)C1)Nc1cc(OC)c([C@@H]5[C@H]6O[C@H]6[C@@]6(CC)CC(C(=O)OC)=C7Nc8cc(O)ccc8[C@@]78CCN5[C@@H]68)cc14)[C@@H]32"
assay_endpoint = "growth"
quantitative_result = -5.67

[[record]]
molecule = "Cc1cc(C(NC(=O)CCCCCNc2cccc3c2C(=O)N(C2CCC(=O)CC2=O)C3=O)c2cccc(N(C)C)c2)c(O)c2ncccc12 (stereo not drawn)"
assay_endpoint = "growth"
quantitative_result = -19.4

[[record]]
molecule = "CCCCCCCCCCCCCCCCCC(=O)Nc1ccc(OC)cc1"
assay_endpoint = "growth"
quantitative_result = 86.4

[[record]]
molecule = "Cn1cc(-c2cc(N)n3nc(-c4c[nH]c5ccccc45)cc3n2)c2cc(Cl)ccc21"
assay_endpoint = "growth"
quantitative_result = -16.2

[[record]]
molecule = "COc1ccc(-c2cc(-c3ccccc3)c(C#N)c(=O)[nH]2)cc1S(N)(=O)=O"
assay_endpoint = "growth"
quantitative_result = 113


Ask | Please give the measured growth for this molecule: Clc1ccc(-c2nc3ccc(-c4nnc(SCc5ccccc5)o4)cc3[nH]2)cc1
Reply | 34.1

Ask | Please give the measured growth for this molecule: N/C(=N\c1nc2ccccc2s1)NC(=O)Nc1ccccc1F
Reply | 5.96

Ask | Please give the measured growth for this molecule: Cn1cc(-c2cc(N)n3nc(-c4c[nH]c5ccccc45)cc3n2)c2cc(Br)ccc21
Reply | -22.9
